Ref: patent US20020152038A1

- Assay Notes: Headspace above the lemonade, SPME, relative partition parameters
- Type: physicochemical
- Conditions Used: headspace vs lemonade, 0.05% odorant mixture, 2 h at 35° C., SPME 15 min
Test Readout: Activity (logarithmic partition parameter above lemonade)
Response field accepts a number only; no unit should be typed.

// worked examples, Activity (logarithmic partition parameter above lemonade) included
CC1=CCC2CC1C2(C)C (stereo not drawn) : 0.363
C=CC(C)CCCC(C)(C)O (stereo not drawn) [Dihydromyrcenol] : 0.334
CC(CC=O)CCCC(C)(C)O (stereo not drawn) [Hydroxycitronellal] : −1.879
CC(C=O)Cc1ccc(C(C)(C)C)cc1 (stereo not drawn) : −0.656
CC(=O)OCC=C(C)C [Prenyl acetate] : 0.151

# context switch: different compound, same Activity (logarithmic partition parameter above lemonade)
### Prompt Need Activity (logarithmic partition parameter above lemonade), item O=C(OCc1ccccc1)c1ccccc1O [Benzyl salicylate]
### Response −3.037

====

- Assay Notes: Headspace above the lemonade, SPME, relative partition parameters
- Format: physicochemical
- Conditions Used: headspace vs lemonade, 0.05% odorant mixture, 2 h at 35° C., SPME 15 min
Note to self: class = bucket of Activity (logarithmic partition parameter above lemonade), per low interval (below -0.4), middle interval (-0.4 to below 0.09), high interval (0.09 or more)

Known results for compounds:
CC(=O)OCc1ccccc1 [Benzyl acetate] : middle interval
CC(C)CCOC(=O)c1ccccc1O [Isoamyl salicylate] : low interval
CC(=O)/C=C/C1C(C)=CCCC1(C)C (stereo not drawn) : middle interval
OCCc1ccccc1 : middle interval
CCCCCC/C(C=O)=C\c1ccccc1 : low interval

### Prompt # bin label for CC(C)=CCCC(C)CCO (stereo not drawn)
### Response middle interval

### Prompt Try this compound next: CC(=O)OC(C)(C)Cc1ccccc1 [DMBCA, dimethylbenzylcarbinyl acetate]
### Response high interval

### Prompt Try this compound next: CC(=O)OC(C)c1ccccc1 (stereo not drawn) [Styrolyl acetate]
### Response high interval

### Prompt Try this compound next: CC(C)=CCC/C(C)=C/CO
### Response low interval

====

- Conditions Used: according to COSMO-RS correlation
Classify: yes (1) when Differences (Activity minus Prediction, lemonade) is strictly less than 0.07; no (0) when Differences (Activity minus Prediction, lemonade) is not.

### Prompt Just wondering, is Differences (Activity minus Prediction, lemonade) of C=C1CCC2CC1C2(C)C (stereo not drawn) below 0.07?
### Response yes (1)

### Prompt Try this compound next: CC(=O)O[C@@H]1C[C@H]2CC[C@]1(C)C2(C)C (racemic) [Isobornyl acetate]
### Response no (0)

### Prompt Try this compound next: CCCCCC/C(C=O)=C\c1ccccc1
### Response yes (1)

### Prompt Try this compound next: CC(C=O)Cc1ccc(C(C)(C)C)cc1 (stereo not drawn)
### Response no (0)

### Prompt Try this compound next: C[C@@H]1CC[C@H]2C(C)(C)[C@H]3C[C@@]12CC[C@@]3(C)O
### Response no (0)

### Prompt Try this compound next: OCc1ccccc1
### Response yes (1)

====

- Conditions Used: according to COSMO-RS correlation
Measured Differences (Activity minus Prediction, milkshake) values are reported for all entries that follow.

CCOC(=O)c1ccccc1C(=O)OCC [Diethyl phthalate] : −0.553
CC(=O)/C=C/C1C(C)=CCCC1(C)C (stereo not drawn) [Ionone, α, Ionone, alpha] : 0.158
CC1=CCC2CC1C2(C)C (stereo not drawn) [alpha-Pinene] : 0.067
CC(CC=O)CCCC(C)(C)O (stereo not drawn) [Hydroxycitronellal] : −1.369
C=C1C2CCC(C2)C1(C)C (stereo not drawn) [Camphene] : −0.169

# context switch: different compound, same Differences (Activity minus Prediction, milkshake)
### Prompt Need Differences (Activity minus Prediction, milkshake), item C=C(C)[C@H]1CC=C(C)CC1 [Limonene D]
### Response −0.090
